Reference source for all entries: patent US7332615B2

Below, each of the compounds is paired with its reported IC50 value.
- System: lung carcinoma (A-549)
- Experiment Description: Cytotoxicity Assays Method C, A-549
- Assay type: cell-based
- Stated Conditions: Homo sapiens, A549, 72 h, A549, 50% reduction in cell number after 72 hr of incubation; read-out: IC50 A549
Readout: IC50 (nM)

>>> data_value("O=C([O-])CCCC(=O)OCc1cc2c(s1)C(=O)c1sccc1C2=O.[Na+]")
940
>>> data_value("CC(OC(=O)CCCC(=O)[O-])c1cc2c(s1)C(=O)c1ccsc1C2=O.[Na+] (stereo not drawn)")
2520
>>> data_value("CC(OC(=O)CCC(=O)[O-])c1cc2c(s1)C(=O)c1sccc1C2=O.[Na+] (stereo not drawn)")
470
>>> data_value("CC(OC(=O)CCC(=O)[O-])c1cc2c(s1)C(=O)c1ccsc1C2=O.[Na+] (stereo not drawn)")
2220
>>> data_value("CC(OC(=O)CCCC(=O)[O-])c1cc2c(s1)C(=O)c1sccc1C2=O.[Na+] (stereo not drawn)")
1890
>>> data_value("C[C@H](NC(=O)c1cc2c(s1)C(=O)c1ccsc1C2=O)C(=O)[O-].[Na+]")
540
